system: HBV; assay: Anti-HBV activity in HepG2.2.15 stable transfected cell line (HBV DNA from secreted virions, realtime PCR); format: cell-based, Hepatitis B virus; settings: HepG2.2.15 cells; 6 days of treatment; HBV DNA from secreted virions by realtime PCR
readout.type: pEC50
Interpret pEC50 as the negative base-10 log of the concentration measured in mol/L.

What does the data say about its pEC50? Entry: CC1C(C(=O)Nc2ccc(F)c(Cl)c2F)CCCN1C(=O)C(=O)N[C@H](C)C(F)(F)F (single isomer, unassigned) [Compound 35b]
6.71

What does the data say about its pEC50? Entry: Cc1cc(NC(=O)C2CC(C)N(C(=O)C(=O)NC3(C)COC3)C2)ccc1F (single isomer, unassigned) [Compound 17d]
7.15

----------
system: HBV; experiment: Anti-HBV activity in HepG2.117 inducible HBV producing cell line (intracellular HBV DNA, realtime PCR); assay type: cell-based, Hepatitis B virus; settings: Hepatitis B virus, HepG2.117, 72 h, HepG2.117 cells (Tet-off); 3 days of treatment; intracellular HBV DNA by realtime PCR
Listed here: items and their measured pEC50.
Interpret pEC50 as the negative base-10 log of the concentration measured in mol/L.

// below: answered compounds
C[C@@H](NC(=O)C(=O)N1CC[C@H](C(=O)Nc2ccc(F)c(C#N)c2)C1)C(F)(F)F | 6.89
C[C@H](NC(=O)C(=O)N1CC[C@H](C(=O)Nc2ccc(F)c(Cl)c2)C1)C(F)(F)F | 6.91
Cc1cc(NC(=O)[C@H]2CCN(C(=O)C(=O)NC(C)C)C2)ccc1F | 7.15
CC(C)NC(=O)C(=O)N1CC[C@H](C(=O)Nc2ccc(F)c(C(F)F)c2)C1 | 6.84

Notebook entry, HBV assay: pEC50 of CC(C)NC(=O)C(=O)N1CCC(C(=O)Nc2ccc(F)c(C#N)c2)[C@@H]1C (stereo partly shown) = ?
6.90

Notebook entry, HBV assay: pEC50 of C[C@@H](NC(=O)C(=O)N1CC[C@H](C(=O)Nc2ccc(F)c(Cl)c2F)C1)C(F)(F)F = ?
7.20

Notebook entry, HBV assay: pEC50 of C[C@H](NC(=O)C(=O)N1CC[C@H](C(=O)Nc2ccc(F)c(C(F)F)c2)C1)C(F)(F)F = ?
6.90
